For each record, write down the corresponding TGI.
tested on: SK-MEL-5 melanoma; assay: NCI tumour cell line growth inhibition, 48 h
Answers are plain numbers, in µM.

Can you give me TGI for all of these, one by one?
1. Nc1nc2ccccc2c2[nH]c3ccccc3c12
2. O=c1[nH]c(=S)n(-c2cccc3ccccc23)c(O)c1/C=C1\C=Nc2ccccc21
3. CC[C@@]1(O)C(=O)OCc2c1cc1n(c2=O)Cc2cc3c([N+](=O)[O-])c(O)ccc3nc2-1
4. NCc1ccc(O)c(O)c1O
5. CN(C)C=O.CN(C)C=O.CN1C(C(=O)Nc2ccccn2)=C([O-])c2ccccc2S1(=O)=O.CN1C(C(=O)Nc2ccccn2)=C([O-])c2ccccc2S1(=O)=O.[Cu+2]

[3.01, 3.12, 2.39, 56, 36.8]

---

tested on: HS 578T breast; assay: NCI tumour cell line growth inhibition, 48 h
Kindly supply the reported TGI values for the records listed here.
One number for each entry, in µM.

Lab request: please report TGI under test system HS 578T breast for COc1cc2c(NCCN(C)C)nc3c4cc5c(cc4ccc3c2cc1OC)OCO5 12.4

Field entry: COc1c(N2CCCCC2)c2c(=O)c3ccccc3oc2c2cc(C)oc12 79.6

List TGI for every entry below, keeping the order given.
1. CCN(CC)c1ccc(CNc2cc(C)nc3ccc(OC)cc23)cc1
2. CC[C@]12C=CCN3CC[C@@]4(c5ccc(OC)cc5N(C)[C@H]4[C@@](O)(C(=O)OC)[C@@H]1OC(=O)CCCC[P+](c1ccccc1)(c1ccccc1)c1ccccc1)[C@@H]32

6.73
9.11

---

Kindly state TGI for each of the entries shown.
tested on: KM12 colon; experiment: NCI tumour cell line growth inhibition, 48 h
Give bare numbers, in µM.

Reference set, count: 3
Reported TGI for KM12 colon, given COc1ccc(C(=O)OC2C(OC3C(O)COC(O[C@H]4C[C@H]5[C@@H]6CC=C7C[C@@H](O)CC[C@]7(C)[C@H]6CC[C@]5(C)[C@H]4[C@H](C)C(=O)CCC(C)C)C3OC(=O)C(C)C)OCC(O)C2O)cc1 (some centres undefined) ? 4.77

What do you get for COc1ccc(Nc2[nH]n(C3=Nc4ccccc4Sc4ccccc43)c(=O)c2C#N)cc1 ? 11.3

Now consider CC(/C=C/C=C\C=C\C=C(/C)C(=O)NC(C)CO)=C\C(C)C(O)/C(C)=C/C(C)CCc1ccccc1 (centres undefined) and answer again. 19.1

New cases:
Report TGI for C#CCn1c(=O)c(I)cn(/C(=C\C(=O)OCC)C(=O)OCC)c1=O tested on KM12 colon. 31.7

---

test system: UACC-257 melanoma; experiment: NCI tumour cell line growth inhibition, 48 h
Assign TGI to each entry below.

Solved cases (5 shown):
Item under review: CC(C)C[C@H](NC(=O)[C@H](Cc1ccccc1)NC(=O)c1cnccn1)B(O)O . Reported TGI? 0.00349 µM

What about this compound? O=S(=O)(Nc1nc2ccccc2nc1Nc1cccc2ccccc12)c1ccccc1 > 100 µM

Would you kindly repeat that for Cc1ccc([N+]2=NC(c3ccc([N+](=O)[O-])cc3)=NN(c3ccccc3)C2)cc1 ? > 100 µM

Another compound to look at: CCN1C(=O)/C(=C\c2coc3ccccc3c2=O)SC1=S > 100 µM

Next record, please: Cc1cc(Cl)ccc1NC(=O)C1C(=O)C(=O)N(c2ccc(Cl)cc2C)C1=O (centres undefined) > 100 µM

I would be grateful if you could provide TGI for each of the following entries.
1. O=C1CC2(CCN(CC3COc4ccccc4O3)CC2)C(=O)N1N1CCCCCC1 (centres undefined)
2. COc1cccc(-c2cc(=O)c3cc(C)c(C)c(C(=O)O)c3o2)c1
3. COc1ccc(C2CC(c3ccc4ccccc4c3)=NN2/C=C2\SC(=S)N(NC(=O)Cc3ccccc3Nc3c(Cl)cccc3Cl)C2=O)cc1 (centres undefined)
4. COc1ccc(C(=O)OC2C(OC3C(O)COC(O[C@H]4C[C@H]5[C@@H]6CC=C7C[C@@H](O)CC[C@]7(C)[C@H]6CC[C@]5(C)[C@H]4[C@H](C)C(=O)CCC(C)C)C3OC(=O)C(C)C)OCC(O)C2O)cc1 (some centres undefined)
5. Clc1ccc(-c2c3nc(c(-c4ccc(Cl)cc4)c4ccc([nH]4)c(-c4ccc(Cl)cc4)c4nc(c(-c5ccc(Cl)cc5)c5ccc2[nH]5)C=C4)C=C3)cc1
6. CC1=CC[C@@H]2[C@@H](CC[C@@]2(C)O)C(C)(C)[C@H]1CC[C@@H]1[C@@]2(C)CC[C@@H](O)C(C)(C)O[C@@H]2CC[C@]1(C)O
7. O=C1c2ccccc2-c2nc(-c3cccs3)cc3c2c1nc1ccccc13
8. CCCCCCCCCCCCCCCCCc1cc(Cl)nc(Cl)n1

["> 100 µM", "> 100 µM", "> 100 µM", "0.114 µM", "> 100 µM", "81 µM", "37.3 µM", "> 100 µM"]

Hey, can you go through the list below and give me TGI for every item?
1. CC(SC(=S)N(C)C)C(=O)Nc1nnc(-c2ccc(Cl)cc2)o1 (centres undefined)
2. Cc1cccc(-c2cccc(COCc3cccc(-c4cccc(CO)n4)n3)n2)n1
3. CCOP(=O)(OCC)c1cc2cc(O)ccc2oc1=O
4. CC(C)C(C)C(O)C(O)C(C)C1CCC2C3COC(=O)C4CC(O)C(O)CC4(C)C3CCC12C (centres undefined)
5. CN(C)C=O.CN(C)C=O.CN1C(C(=O)Nc2ccccn2)=C([O-])c2ccccc2S1(=O)=O.CN1C(C(=O)Nc2ccccn2)=C([O-])c2ccccc2S1(=O)=O.[Cu+2]
6. O=c1ncc(I)c[nH]1

> 100 µM
> 50 µM
> 100 µM
> 100 µM
> 100 µM
> 100 µM
